Data origin: ChEMBL document CHEMBL1201861

Below, each entry is listed with its recorded pIC50.
- System: HCC1187;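 note: growth inhibition of HCC1187 cells, read out with a cell viability assay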
- method description: cells
- Type: functional, cell-based, Homo sapiens
- reported conditions: Homo sapiens, HCC1187
- Description: SANGER: Inhibition of human HCC1187 cell growth in a cell viability assay.
pIC50: −log10 of the molar value.

chem_smiles=CCN(CC)CCNC(=O)c1c(C)[nH]c(/C=C2\C(=O)Nc3ccc(F)cc32)c1C assay_target=HCC1187 test_value="< 5.10"
chem_smiles=COc1cccc2c1C(=O)c1c(O)c3c(c(O)c1C2=O)C[C@@](O)(C(=O)CO)C[C@@H]3O[C@H]1C[C@H](N)[C@H](O)[C@H](C)O1 assay_target=HCC1187 test_value=6.23
chem_smiles=CC(C)c1ccccc1Cc1cc(C(=O)Nc2ccc(S(=O)(=O)c3ccccc3C(C)(C)C)cc2)c(O)c(O)c1O assay_target=HCC1187 test_value=6.37
chem_smiles=CCC/C=C/C=C/C(=O)O[C@H]1/C(=C/C(=O)OC)C[C@H]2C[C@H]([C@@H](C)O)OC(=O)C[C@H](O)C[C@@H]3C[C@H](OC(C)=O)C(C)(C)[C@](O)(C[C@@H]4C/C(=C/C(=O)OC)C[C@H](/C=C/C(C)(C)[C@]1(O)O2)O4)O3 assay_target=HCC1187 test_value="< 8.10"
chem_smiles=O=C(O)c1ccc(-c2c[nH]c3ncc(-c4ccccc4)cc23)cc1C1CCCC1 assay_target=HCC1187 test_value="< 4.80"

Lookup: Give its pIC50 value. Item: CC[C@H](CO)Nc1nc(NCc2ccccc2)c2ncn(C(C)C)c2n1
Found: < 4.80

Lookup: Look at this molecule and give its reported pIC50. Cc1cc([N+](=O)[O-])ccc1NS(=O)(=O)c1cc(Cl)ccc1Cl
Found: 4.68

Lookup: Name the reported pIC50 value associated with the molecule C#Cc1cccc(Nc2ncnc3cc(OCCOC)c(OCCOC)cc23)c1
Found: < 5.70

###

- Test system: BFTC-909
- method description: cells
- Format: functional, cell-based, Homo sapiens
- reported conditions: Homo sapiens, BFTC-909
- Description: SANGER: Inhibition of human BFTC-909 cell growth in a cell viability assay.
pIC50: −log10 of the molar value.
observable: pIC50

compound="Cc1cn(-c2cc(NC(=O)c3ccc(C)c(Nc4nccc(-c5cccnc5)n4)c3)cc(C(F)(F)F)c2)cn1 [NILOTINIB]" test_value="< 5.70"

Lookup: Record request: pIC50 value, item N#Cc1c(O)c2c(-c3ccc(-c4ccccc4O)cc3)csc2[nH]c1=O
Found: < 5.99

Lookup: Given the compound CS(=O)(=O)c1ccc(C(=O)Nc2ccc(Cl)c(-c3ccccn3)c2)c(Cl)c1 [VISMODEGIB] , what is its reported pIC50?
Found: < 5.00

Lookup: So what does the record say about pIC50 for Cn1cnc2c(F)c(Nc3ccc(Br)cc3Cl)c(C(=O)NOCCO)cc21 [SELUMETINIB] ?
Found: < 5.40

Lookup: Form field: reported pIC50 of CC(C)CCN1c2nc(Nc3cc(F)c(O)c(F)c3)ncc2N(C)C(=O)C1C (stereo not given)
Found: < 5.30

###

Documented IC50 across a set of compounds
- System: NCI-H526;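 note: growth inhibition of the human NCI-H526 cell line, measured by a cell viability assay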
- method description: cells
- Format: functional, cell-based, Homo sapiens
- reported conditions: Homo sapiens, NCI-H526
- Description: SANGER: Inhibition of human NCI-H526 cell growth in a cell viability assay.

Worked examples, 5 compounds total:
chem_smiles=COc1cc2c(Nc3ccc(NC(=O)c4ccccc4)cc3)ncnc2cc1OCCCN1CCOCC1 test_value="> 4 µM"
chem_smiles=Cc1cn(-c2cc(NC(=O)c3ccc(C)c(Nc4nccc(-c5cccnc5)n4)c3)cc(C(F)(F)F)c2)cn1 test_value="> 2 µM"
chem_smiles=CCN(CC)CCNC(=O)c1c(C)[nH]c(/C=C2\C(=O)Nc3ccc(F)cc32)c1C test_value="> 8 µM"
chem_smiles=N#Cc1c(O)c2c(-c3ccc(-c4ccccc4O)cc3)csc2[nH]c1=O test_value="0.468 µM"
chem_smiles=COc1cc(-c2nn([C@H]3CC[C@H](N4CCN(C(C)=O)CC4)CC3)c3ncnc(N)c23)ccc1NC(=O)c1cc2ccccc2n1C test_value="> 5.12 µM"

Now look at this one.
Lookup: Entry CN(C)C(=N)NC(=N)N has what IC50?
Found: 16100 µM

###

Recorded IC50, one value per entry.
- Test system: SF-126
- method description: cells
- Assay type: functional, cell-based, Homo sapiens
- reported conditions: Homo sapiens, SF-126
- Description: SANGER: Inhibition of human SF126 cell growth in a cell viability assay.
Quick reminder: number only, in nM, skip the unit.

chem_smiles=CC(=O)O[C@H]1C(=O)[C@@]2(C)[C@H]([C@H](OC(=O)c3ccccc3)[C@]3(O)C[C@H](OC(=O)[C@H](O)[C@@H](NC(=O)c4ccccc4)c4ccccc4)C(C)=C1C3(C)C)[C@]1(OC(C)=O)CO[C@@H]1C[C@@H]2O observable=IC50 readout_unit=nM test_value=61.3

Next up:
Lookup: Can you share its IC50? I mean this molecule: COc1cccc2c1C(=O)c1c(O)c3c(c(O)c1C2=O)C[C@@](O)(C(=O)CO)C[C@@H]3O[C@H]1C[C@H](N)[C@H](O)[C@H](C)O1
Found: 105

###

- Tested on: NCI-H661;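 note: cell viability assay read-out, IC50 being the concentration that inhibits growth of the cells by half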
- method description: cells
- Format: functional, cell-based, Homo sapiens
- reported conditions: nci-h661
- Description: SANGER: Inhibition of human NCI-H661 cell growth in a cell viability assay.
observable: IC50 (µM)
Give your result in µM as a bare value.

Lookup: Given the sequence CISPLATIN , what is its reported IC50?
Found: 13.6

###

- Tested on: GAK;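 note: cell growth inhibition read out by a cell viability assay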
- method description: cells
- Type: functional, cell-based, Homo sapiens
- reported conditions: Homo sapiens, GAK
- Description: SANGER: Inhibition of human GAK cell growth in a cell viability assay.
Entries and their IC50 values follow.

Solved entries:
compound="CS(=O)(=O)c1ccc(C(=O)Nc2ccc(Cl)c(-c3ccccn3)c2)c(Cl)c1 [VISMODEGIB]" test_value="> 10 µM"
compound=Cc1ccc(-c2c(C(=O)CCl)n(CCCO)c3ncnc(N)c23)cc1 test_value="> 4 µM"

Lookup: Entry COc1cc2ncn(-c3cc(OCc4ccccc4C(F)(F)F)c(C(N)=O)s3)c2cc1OC [GW843682X] has what IC50?
Found: 0.185 µM

Lookup: For the compound COc1cc(N2CCN(C)CC2)ccc1Nc1ncc2c(n1)N(C)c1ccccc1C(=O)N2C , what IC50 is on record?
Found: > 8 µM

Lookup: Need IC50, item CC(C)c1ccccc1Cc1cc(C(=O)Nc2ccc(S(=O)(=O)c3ccccc3C(C)(C)C)cc2)c(O)c(O)c1O
Found: 2.03 µM

Lookup: Report IC50 for CC1(C)CNc2cc(NC(=O)c3cccnc3NCc3ccncc3)ccc21 [MOTESANIB] please.
Found: > 2 µM

Lookup: Looking for the measured IC50 of CO[C@H]1C[C@@H]2CC[C@@H](C)[C@@](O)(O2)C(=O)C(=O)N2CCCC[C@H]2C(=O)O[C@H]([C@H](C)C[C@@H]2CC[C@@H](OC(=O)C(C)(CO)CO)[C@H](OC)C2)CC(=O)[C@H](C)/C=C(\C)[C@@H](O)[C@@H](OC)C(=O)[C@H](C)C[C@H](C)/C=C/C=C/C=C/1C [TEMSIROLIMUS] , can you help?
Found: > 0.2 µM

Lookup: # input compound: N[C@@H](CSC(c1ccccc1)(c1ccccc1)c1ccccc1)C(=O)O [S-TRITYL-L-CYSTEINE] ; wanted: its IC50
Found: > 5.12 µM

Lookup: Find the recorded IC50 belonging to CN(C)C(=N)NC(=N)N [METFORMIN] and report it.
Found: > 20000 µM

Lookup: Consider the compound shown here: COc1cc2ncn(-c3cc(OCc4ccccc4S(C)(=O)=O)c(C#N)s3)c2cc1OC [GSK-319347A] What is its recorded IC50?
Found: > 5 µM

Lookup: // lookup IC50 for COc1cc(-c2nn([C@H]3CC[C@H](N4CCN(C(C)=O)CC4)CC3)c3ncnc(N)c23)ccc1NC(=O)c1cc2ccccc2n1C
Found: > 5.12 µM

###

- Test system: HEL
- method description: cells
- Type: functional, cell-based, Homo sapiens
- reported conditions: Homo sapiens, HEL
- Description: SANGER: Inhibition of human HEL cell growth in a cell viability assay.
Where a name gives a salt, the structure may show the parent alone.
Listed here: items and their measured pIC50.
Quick note: pIC50 means taking -log10 of the concentration in moles per liter.

Examples from the recorded data:
compound=O=C(O)c1ccc(-c2c[nH]c3ncc(-c4ccccc4)cc23)cc1C1CCCC1 observable=pIC50 test_value=4.97
compound=CC(C)c1ccccc1Cc1cc(C(=O)Nc2ccc(S(=O)(=O)c3ccccc3C(C)(C)C)cc2)c(O)c(O)c1O observable=pIC50 test_value=6.28
compound=COc1cccc2c1C(=O)c1c(O)c3c(c(O)c1C2=O)C[C@@](O)(C(=O)CO)C[C@@H]3O[C@H]1C[C@H](N)[C@H](O)[C@H](C)O1 observable=pIC50 test_value=6.76
compound=CCN(CC)CCNC(=O)c1c(C)[nH]c(/C=C2\C(=O)Nc3ccc(F)cc32)c1C observable=pIC50 test_value=5.46

Lookup: // query pIC50 value for entry COC1=CC(c2cc3ccccc3[nH]2)=N/C1=C\c1[nH]c(C)cc1C [OBATOCLAX MESYLATE]
Found: 6.81

Lookup: Value lookup for pIC50; key = Nc1ccn([C@@H]2O[C@H](CO)[C@@H](O)C2(F)F)c(=O)n1
Found: 8.75

Lookup: Recorded pIC50 for OCCCNc1cc(-c2ccnc(Nc3cccc(Cl)c3)n2)ccn1 , please?
Found: 6.94
